Data credit: patent US8633245B2

Attribute: Inhibition Rate of PAI-1 Activity (%)
TEST SYSTEM: recombinant human PAI-1 (Homo sapiens)
Construct: purchased Molecular Innovations, Inc
TEST DESCRIPTION: Test Example 1: human PAI-1 inhibitory activity (tPA fluorogenic substrate, pH 7.5 Tris buffer)
Type: biochemical
COND: Compound Concentration 10 μM; Tris buffer
Experimental: 50 mM Tris, 150 mM NaCl, 10 μg/ml BSA, 0.01% Tween80 (SIGMA-ALDRICH Corporation)

| QUERY SMILES | TEST SYSTEM | Inhibition Rate of PAI-1 Activity (%) |
| --- | --- | --- |
| CC(C)(C)c1ccc(N(C(=O)C(=O)O)c2ccc(Oc3ccc(OC(F)(F)F)cc3)cc2)cc1 | recombinant human PAI-1 (Homo sapiens) | 64 |
| O=C(O)C(=O)N(Cc1ccc(Cl)cc1)c1ccc(-c2ccc(OC(F)(F)F)cc2)cc1 | recombinant human PAI-1 (Homo sapiens) | 49 |
| CC(C)(C)c1ccc(CN(C(=O)C(=O)O)c2ccc(Oc3ccc(OC(F)(F)F)cc3)cc2)cc1 | recombinant human PAI-1 (Homo sapiens) | 32 |
| O=C(O)CCc1cc(-c2ccc(OC(F)(F)F)cc2)ccc1OCc1cccc(C(F)(F)F)c1 | recombinant human PAI-1 (Homo sapiens) | 53 |
| CCCCc1ccc(COc2ccc(-c3ccc(OC(F)(F)F)cc3)cc2CCC(=O)O)cc1 | recombinant human PAI-1 (Homo sapiens) | 70 |
| CC(C)(C)Oc1ccc(N(Cc2ccc(C(C)(C)C)cc2)C(=O)C(=O)O)cc1-c1ccc(OC(F)(F)F)cc1 | recombinant human PAI-1 (Homo sapiens) | 78 |
| CC(C)(C)c1ccc(-c2ccc(OCc3ccccc3)c(/C=C/C(=O)O)c2)cc1 | recombinant human PAI-1 (Homo sapiens) | 47 |
| Cc1ccc(-c2ccccc2)cc1N(Cc1ccc(C(C)(C)C)cc1)C(=O)C(=O)O | recombinant human PAI-1 (Homo sapiens) | 5 |
| CC(C)(C)c1ccc(COc2ccc(-c3ccc(F)cc3)cc2CCC(=O)O)cc1 | recombinant human PAI-1 (Homo sapiens) | 53 |
| CC(C)(C)c1ccc(CN(C(=O)C(=O)O)c2ccc(N3CCOCC3)c(-c3ccc(OC(F)(F)F)cc3)c2)cc1 | recombinant human PAI-1 (Homo sapiens) | 88 |
| CC(C)(C)c1ccc(COc2cc(Oc3ccc(OC(F)(F)F)cc3)ccc2/C=C/C(=O)O)cc1 | recombinant human PAI-1 (Homo sapiens) | 51 |
| O=C(O)CCc1cc(-c2ccc(OC(F)(F)F)cc2)ccc1OCCCCCc1ccccc1 | recombinant human PAI-1 (Homo sapiens) | 77 |
| CCCOc1ccc(N(CCCc2ccccc2)C(=O)C(=O)O)cc1-c1ccc(OC(F)(F)F)cc1 | recombinant human PAI-1 (Homo sapiens) | 80 |
| CCC(CC)Oc1ccc(N(CCCc2ccccc2)C(=O)C(=O)O)c(-c2ccc(OC(F)(F)F)cc2)c1 | recombinant human PAI-1 (Homo sapiens) | 92 |
| Cc1cc(C)cc(COc2ccc(-c3ccc(OC(F)(F)F)cc3)cc2CC(=O)O)c1 | recombinant human PAI-1 (Homo sapiens) | 84 |
| CC(C)(C)c1ccc(COc2ccc(-c3ccc(OC(F)(F)F)cc3)cc2OCc2nnn[nH]2)cc1 | recombinant human PAI-1 (Homo sapiens) | 63 |
| CC(C)(C)c1ccc(CN(C(=O)C(=O)O)c2ccc(-c3ccc(OC(F)(F)F)cc3)cc2OC(F)(F)F)cc1 | recombinant human PAI-1 (Homo sapiens) | 80 |
| CC(C)(C)c1ccc(CN(C(=O)C(=O)O)c2cc(Oc3ccc(OC(F)(F)F)cc3)cc(C(F)(F)F)c2)cc1 | recombinant human PAI-1 (Homo sapiens) | 94 |
| CC(C)(C)c1ccc(-c2ccc(OCc3ccc(C(F)(F)F)cc3)c(CCC(=O)O)c2)cc1 | recombinant human PAI-1 (Homo sapiens) | 71 |
| CC(C)(C)c1ccc(CN(C(=O)C(=O)O)c2ccc(-c3ccc(C(C)(C)C)cc3)cc2)cc1 | recombinant human PAI-1 (Homo sapiens) | 84 |
| COc1ccc(CN(C(=O)C(=O)O)c2ccc(-c3ccc(OC(F)(F)F)cc3)cc2)cc1 | recombinant human PAI-1 (Homo sapiens) | 10 |
| CC(C)(C)c1ccc(COc2ccc(-c3ccc(OC(F)(F)F)cc3)cc2/C=C/C(=O)O)cc1 | recombinant human PAI-1 (Homo sapiens) | 97 |
| CCCOc1ccc(-c2ccc(OC(F)(F)F)cc2)cc1N(CCCc1ccccc1)C(=O)C(=O)O | recombinant human PAI-1 (Homo sapiens) | 83 |
| CC(C)(C)c1ccc(CN(C(=O)C(=O)O)c2ccc(Cl)cc2Oc2ccc(OC(F)(F)F)cc2)cc1 | recombinant human PAI-1 (Homo sapiens) | 92 |
| CC(C)(Nc1cc(-c2ccc(OC(F)(F)F)cc2)ccc1OCc1ccc(C(C)(C)C)cc1)C(=O)O | recombinant human PAI-1 (Homo sapiens) | 64 |
| CC(C)(C)c1ccc(COc2ccc(-c3cccc(C(=O)O)c3)cc2CCC(=O)O)cc1 | recombinant human PAI-1 (Homo sapiens) | 9 |
| CC(C)(C)c1ccc(COc2ccc(OCc3ccc(OC(F)(F)F)cc3)cc2/C=C/C(=O)O)cc1 | recombinant human PAI-1 (Homo sapiens) | 66 |
| CC(C)(C)c1ccc(N(C(=O)C(=O)O)c2ccc(-c3ccc(OC(F)(F)F)cc3)cc2)cc1 | recombinant human PAI-1 (Homo sapiens) | 89 |
| CC(C)(C)c1ccc(COc2cc(CCC(=O)O)cc(Oc3ccc(OC(F)(F)F)cc3)c2)cc1 | recombinant human PAI-1 (Homo sapiens) | 71 |
| CC(C)(C)c1ccc(CN(C(=O)C(=O)O)c2ccc(-c3ccc(F)cc3)cc2)cc1 | recombinant human PAI-1 (Homo sapiens) | 43 |
| O=C(O)C(=O)N(CCCc1ccccc1)c1ccc(-c2ccc(OC(F)(F)F)cc2)cc1 | recombinant human PAI-1 (Homo sapiens) | 63 |

----------
Attribute: Inhibition Rate of PAI-1 Activity (%)
TEST SYSTEM: recombinant human PAI-1 (Homo sapiens, UniProt P05121)
Construct: purchased Molecular Innovations, Inc
Sequence (P05121 24-402): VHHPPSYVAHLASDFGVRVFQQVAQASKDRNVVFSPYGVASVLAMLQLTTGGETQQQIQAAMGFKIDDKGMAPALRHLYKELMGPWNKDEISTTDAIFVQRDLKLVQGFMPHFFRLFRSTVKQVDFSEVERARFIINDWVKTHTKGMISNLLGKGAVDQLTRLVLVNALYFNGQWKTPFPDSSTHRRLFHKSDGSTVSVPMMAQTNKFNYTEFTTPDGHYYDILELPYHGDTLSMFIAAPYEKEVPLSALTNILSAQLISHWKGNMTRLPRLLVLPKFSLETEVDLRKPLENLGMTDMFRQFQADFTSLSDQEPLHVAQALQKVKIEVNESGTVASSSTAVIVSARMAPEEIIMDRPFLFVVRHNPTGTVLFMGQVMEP
TEST DESCRIPTION: Test Example 2: human PAI-1 inhibitory activity (tPA fluorogenic substrate, pH 7.4 HEPES buffer)
Assay type: biochemical
COND: human PAI-1; compound concentration 1 μM
Experimental: 0.1 M HEPES, 0.1 M NaCl. 1 mM EDTA. 0.1% Polyethylene glycol 8,000 (Hampton Research Corporation), 2 mM Dimethyldecylphoshine oxide [Apo-10] (Fluka Corporation)
QUANTITY KIND: Inhibition Rate of PAI-1 Activity (%)

| COMPOUND | TEST SYSTEM | QUANTITY KIND | RESULT |
| --- | --- | --- | --- |
| CCCCN(CC(=O)O)c1cc(-c2ccc(OC(F)(F)F)cc2)ccc1OCCCCc1ccccc1 | recombinant human PAI-1 (Homo sapiens, UniProt P05121) | Inhibition Rate of PAI-1 Activity (%) | 41% |
| CC(C)(C)c1ccc(Oc2cc(-c3ccccc3OC(F)(F)F)ccc2OCC(=O)O)cc1 | recombinant human PAI-1 (Homo sapiens, UniProt P05121) | Inhibition Rate of PAI-1 Activity (%) | 70% |
| CCCCC(C(=O)O)N(Cc1ccc(C(C)(C)C)cc1)c1ccc(-c2ccc(OC(F)(F)F)cc2)cc1 (stereo not shown) | recombinant human PAI-1 (Homo sapiens, UniProt P05121) | Inhibition Rate of PAI-1 Activity (%) | 94% |
| CCCCC(Nc1cc(-c2ccc(OC(F)(F)F)cc2)ccc1Oc1ccc(C(C)(C)C)cc1)C(=O)O (stereo not shown) | recombinant human PAI-1 (Homo sapiens, UniProt P05121) | Inhibition Rate of PAI-1 Activity (%) | 74% |
| CC(C)(C)c1ccc(COc2ccc(N3CCN(c4ccc(OC(F)(F)F)cc4)CC3)cc2CCC(=O)O)cc1 | recombinant human PAI-1 (Homo sapiens, UniProt P05121) | Inhibition Rate of PAI-1 Activity (%) | 41% |
| Cc1cc(C)cc(-c2ccc(/C=C/C(=O)O)c(Oc3ccc(C(C)(C)C)cc3)c2)c1 | recombinant human PAI-1 (Homo sapiens, UniProt P05121) | Inhibition Rate of PAI-1 Activity (%) | 85% |
| CC(C)(C)c1ccc(Oc2cc(-c3cccc([N+](=O)[O-])c3)ccc2OCC(=O)O)cc1 | recombinant human PAI-1 (Homo sapiens, UniProt P05121) | Inhibition Rate of PAI-1 Activity (%) | 11% |

----------
Attribute: Inhibition Rate of PAI-1 Activity (%)
TEST SYSTEM: recombinant human PAI-1 (Homo sapiens, UniProt P05121)
Construct: purchased Molecular Innovations, Inc
TEST DESCRIPTION: Test Example 2: human PAI-1 inhibitory activity (tPA fluorogenic substrate, pH 7.4 HEPES buffer)
Type: biochemical
COND: human PAI-1; compound concentration 3 μM
Method: 0.1 M HEPES, 0.1 M NaCl. 1 mM EDTA. 0.1% Polyethylene glycol 8,000 (Hampton Research Corporation), 2 mM Dimethyldecylphoshine oxide [Apo-10] (Fluka Corporation)
QUANTITY KIND: Inhibition Rate of PAI-1 Activity (%)

| COMPOUND | UNIT TAG | QUALIFIER | QUANTITATIVE READOUT |
| --- | --- | --- | --- |
| CCCCCOc1ccc(-c2ccc(OC(F)(F)F)cc2)cc1N(CCCOCc1ccccc1)C(=O)C(=O)O | % | = | 97 |
| CC(C)(C)c1ccc(Oc2cc(Nc3ccc(OC(F)(F)F)cc3)ccc2OCC(=O)O)cc1 | % | > | 99 |
| CCCCN(CC(=O)O)c1ccc(-c2ccc(OC(F)(F)F)cc2)cc1Oc1ccc(C(C)(C)C)cc1 | % | = | 97 |
| CCCCC(Nc1cc(-c2ccc(OC(F)(F)F)cc2)ccc1Oc1ccc(C(C)(C)C)cc1)C(=O)O (centres unmarked) | % | = | 96 |
| CCCCOc1ccc(Oc2cc(-c3ccc(OC(F)(F)F)cc3)ccc2CCC(=O)O)cc1 | % | = | 98 |
| CC(C)(C)c1ccc(Oc2cc(-c3cc(Cl)ccc3Cl)ccc2CCC(=O)O)cc1 | % | > | 99 |
| O=C(O)/C=C/c1ccc(-c2ccc(OC(F)(F)F)cc2)cc1Sc1ccccc1 | % | = | 97 |
| CC(C)(C)c1ccc(-c2ccc(CN(C(=O)C(=O)O)c3ccc(OC(F)(F)F)cc3)cc2)cc1 | % | = | 98 |
